# Test system: SK-MEL-5 melanoma
# protocol: NCI-60 one-dose screen, 48 h (100 = growth as untreated, 0 = no growth, -100 = all killed)
# assay-context: 10 µM unless noted
This is part of a sample that, as a whole, favours compounds with a hit. Of some 83,000 tested, about 20% had one in any assay.
Values of growth greater than or equal to -10% map to T; values below map to F.

molecule	class-name
COC(=O)[C@@H](C)C[C@H](Cc1ccccc1)NC(=O)c1nc([C@@H](C[C@H](C(C)C)N(C)C(=O)[C@@H](NC(=O)[C@H]2CC(=O)CCN2C)C(C)C)OC(C)=O)sc1C(C)C	F

IN: Determine whether measured growth meets or exceeds -10% for `COC(=O)N[C@H]1CCc2c(Br)c(OC)c(OC)c(OC)c2-c2ccc(SC)c(=O)cc21`
OUT: F

IN: Determine whether measured growth meets or exceeds -10% for `C[C@]12CCc3sc(-c4cccc(F)c4)nc3C1=CC[C@@H]1[C@@H]2CC[C@]2(C)C(=O)CC[C@@H]12`
OUT: T

IN: Determine whether measured growth meets or exceeds -10% for O=C(O)C(O)C(O)C1[O][Sb]([c]2ccc([N+](=O)[O-])cc2)[O]C1CO (stereo unspecified)
OUT: T

IN: Determine whether measured growth meets or exceeds -10% for O=C1C2C(C(=O)[N]1[Hg][c]1ccccc1)C1(Cl)C(Cl)=C(Cl)C2(Cl)C1(Cl)Cl (stereo unspecified)
OUT: F

IN: Determine whether measured growth meets or exceeds -10% for OCCNC(Cc1ccccc1)c1ccc2c(c1)OCO2 (stereo unspecified)
OUT: T

====

Entries and their growth values follow.
# Tested on: NCI-H522 lung
# protocol: NCI-60 one-dose screen, 48 h (100 = growth as untreated, 0 = no growth, -100 = all killed)
# assay-context: 10 µM unless noted
This is part of a sample that, as a whole, favours compounds with a hit. Of some 83,000 tested, about 20% had one in any assay.
Note: unit % is implicit; provide only the numeric part.

IN: Specify the recorded growth for `Brc1ccc2c(c1)c(-c1nc(-c3c[nH]c4ncccc34)cs1)cn2CCN1CCCCC1` , system: NCI-H522 lung.
OUT: 68.8

IN: Specify the recorded growth for `C#Cc1ccc2c(c1)C(c1ccccc1F)=NCC(=O)N2C` , system: NCI-H522 lung.
OUT: 8.61

IN: Specify the recorded growth for `CCCC[C@H](NC(=O)[C@H]1CCCCN1C)C(=O)N(C)[C@H](C[C@@H](OC(C)=O)c1nc(C(=O)N[C@@H](Cc2ccccc2)C[C@H](C)C(=O)OCC)cs1)C(C)C` , system: NCI-H522 lung.
OUT: -25

IN: Specify the recorded growth for `COC(=O)[C@@]1(C)CC[C@]2(C)CC[C@]3(C)C4=CC(=O)c5c(cc(O)c(O)c5C)[C@]4(C)CC[C@@]3(C)[C@@H]2C1` , system: NCI-H522 lung.
OUT: 38.5

IN: Specify the recorded growth for CCCCNC(c1ccc(Cl)cc1)C(O)c1ccc(Cl)cc1 (stereo not drawn) , system: NCI-H522 lung.
OUT: 35.2

IN: Specify the recorded growth for `Cc1cc(N(CCCl)CCCl)ccc1C=Nc1ccc(-c2csc(Cc3ccccc3)n2)cc1` , system: NCI-H522 lung.
OUT: 69.7

IN: Specify the recorded growth for `O=C(CCCCCNC1=CC(=O)c2ccccc2C1=O)NCCC[Te]c1ccccc1` , system: NCI-H522 lung.
OUT: -18.5

IN: Specify the recorded growth for CCCCCSC1C2C(=O)C(Br)=CC13CCNc1c(O)c4c5c(c13)=[N+]2CCC=5C=N4 (stereo not drawn) , system: NCI-H522 lung.
OUT: -64.4

IN: Specify the recorded growth for `Brc1ccc2c(c1)c(-c1nc(-c3c[nH]c4ncccc34)cs1)cn2CCN1CCOCC1` , system: NCI-H522 lung.
OUT: 76.1

====

# System: SNB-19 CNS
# protocol: NCI-60 one-dose screen, 48 h (100 = growth as untreated, 0 = no growth, -100 = all killed)
# assay-context: 10 µM unless noted
Compounds without any hit were thinned out: in the full panel of roughly 83,000, 20% have a hit. Calls of active or inactive are those of the source. The calls were made as follows: active = growth percent below 10; inactive = the rest.
assay-endpoint: growth

Here is how some compounds turned out for growth.
compound	reported-measurement
COC[C@@H]1C[C@@]2(C)[C@@H](CC[C@@H]3[C@@H]2CC[C@@]2(C)[C@H]3CC[C@]2(C)O)CC1=O	113% (inactive)
CC(=O)O[C@H]1CC[C@]2(C)[C@H]3CC[C@]4(C)[C@@H](OC(C)=O)CC[C@H]4[C@@H]3[C@@H](C)[C@]2(O)C1	111% (inactive)

IN: Report measured growth; entry is `COc1cc(NCCCN=C(N)N)c2ncccc2c1`
OUT: 81.8% (inactive)

IN: Report measured growth; entry is `COC(=O)C12CC(NC(=O)c3csc([C@@H](C[C@H](C(C)C)N(C)C(=O)[C@@H](NC(=O)[C@H]4CCCCN4C)C(C)C)OC(C)=O)n3)(C1)C2`
OUT: 29.1% (inactive)

IN: Report measured growth; entry is CCC1CN1CCCCN1CC1CC (stereo unspecified)
OUT: 99.3% (inactive)

IN: Report measured growth; entry is `C[C@]12CCc3sc(NCCc4ccccc4)nc3C1=CC[C@@H]1[C@@H]2CC[C@]2(C)C(=O)CC[C@@H]12`
OUT: 80.2% (inactive)

IN: Report measured growth; entry is O=C([O][Hg][CH2]C1OCCOC1[CH2][Hg][O]C(=O)c1ccccc1)c1ccccc1 (stereo unspecified)
OUT: 105% (inactive)

IN: Report measured growth; entry is `COc1cccc2c1c(C(=O)c1ccco1)cn2Cc1ccc(F)cc1`
OUT: 119% (inactive)

IN: Report measured growth; entry is `CS(=O)(=O)CCN1CC2CCCC(C2)C1`
OUT: 99.8% (inactive)

IN: Report measured growth; entry is `COC(=O)[C@@H](C[C@H](Cc1ccccc1)NC(=O)c1csc([C@@H](C[C@H](C(C)C)N(C)C(=O)[C@@H](NC(=O)[C@H]2CCCCN2C)C(C)C)OC(C)=O)n1)NC(=O)OCc1ccccc1`
OUT: 25.4% [9.5 µM] (inactive)

IN: Report measured growth; entry is CC(CO)NC1CCCCC1 (stereo unspecified)
OUT: 102% (inactive)

IN: Report measured growth; entry is `COC(=O)[C@@]1(C)CC[C@]2(C)CC[C@]3(C)C4=CC(=O)c5c(cc(O)c(O)c5C)[C@]4(C)CC[C@@]3(C)[C@@H]2C1`
OUT: 60.5% (inactive)

IN: Report measured growth; entry is O=C1CC2(CC3(Cl)C(Cl)=C(Cl)C2(Cl)C3(Cl)Cl)C(=O)O1 (stereo unspecified)
OUT: 106% (inactive)

IN: Report measured growth; entry is `COC(=O)[C@@H](C)C[C@H](Cc1ccccc1)NC(=O)c1nc([C@@H](C[C@H](C(C)C)N(C)C(=O)[C@@H](NC(=O)[C@H]2C[C@H](O)CCN2C)C(C)C)OC(C)=O)sc1C(C)C`
OUT: 16.5% (inactive)

IN: Report measured growth; entry is `CC1(C)N=C(N)N=C(N)N1c1cccc(CCCCc2ccc(Cl)c(S(=O)(=O)F)c2)c1`
OUT: 45.9% (inactive)

IN: Report measured growth; entry is `c1ccc(Nc2nc(-c3ccccc3)c[se]2)cc1`
OUT: 91.7% (inactive)

====

# System: MDA-MB-231 breast
# protocol: NCI-60 one-dose screen, 48 h
# assay-context: 10 µM unless noted
The panel holds about 83,000 compounds, 20% with a hit somewhere; the sample as a whole holds those more often. The source made the active and inactive calls. Rule for the calls: active = growth percent below 10; inactive = the rest.
Valid outcomes are listed here; reply with one: true = active, false = inactive

Check out these entries, answers already filled in.
molecule	assayed-target	class-name
Fc1ccc(C2=CCNCC2)cc1	MDA-MB-231 breast	false
O=C1C(Cl)=C(N2CCOCC2)C(=O)c2ccccc21	MDA-MB-231 breast	false
CCCCNC(c1ccc(Cl)cc1)C(O)c1ccc(Cl)cc1 (stereo not drawn)	MDA-MB-231 breast	true
CC(=O)O[C@H]1C(=O)[C@@]2(C)[C@H]([C@H](OC(=O)c3ccccc3)[C@]3(O)C[C@H](OC(=O)[C@H](OC(=O)OCC4COC(C)(C)O4)[C@@H](NC(=O)c4ccccc4)c4ccccc4)C(C)=C1C3(C)C)[C@]1(OC(C)=O)CO[C@@H]1C[C@@H]2O (stereo partly drawn)	MDA-MB-231 breast	false
CC1(C)C(C(=O)c2cn(CCCCF)c3ccccc23)C1(C)C	MDA-MB-231 breast	false

IN: Look up the recorded call for `[Cl][Hg][n]1c(-c2ccco2)nc2ccccc21` in this test.
OUT: false

IN: Look up the recorded call for `CCCCN1CCCC[C@@H]1C(=O)N[C@H](C(=O)N(C)[C@H](CCc1nc(C(=O)N[C@@H](Cc2ccccc2)C[C@H](C)C(=O)OC)cs1)C(C)C)[C@@H](C)CC` in this test.
OUT: false

IN: Look up the recorded call for `Cc1ccc(S(=O)(=O)F)cc1C(=O)O` in this test.
OUT: false
